Tested On: SARS-CoV-2 Spike S1 (Wuhan; S1 or RBD) (Severe acute respiratory syndrome …, UniProt P0DTC2)
Test Details: SPR
Measured Parameter: pKd
# pKd is unitless: minus log10 of the molar concentration; print number only

Before answering, review these 3 worked examples.
Binder | pKd
CoV2-YD-7 (antibody, V domains shown) VH: QVQLVESGGGLVQPGGSLRLSCTASVHPFSIYDMGWYRQAPGKQRVLVASISSDGTTDYADSVKGRFTISRDNAKNTVYLQMDSLKPEDTAVYYCNLAYVTWGQGTQVTVS | 8.49
CoV2-YD-2 (antibody, V domains shown) VH: QVQLVESGGGLVQPGGSLRLSCSISGFSFGYSAIGWFRQAPGLEREWVSTISSNGDDTVYADSVKGRFTISRDNAKNTVYLQMDSLKPEDTAVYYCARSFRWSRLPRDYDSWGQGTQVTVS | 8.43
CoV2-YD-34 (antibody, V domains shown) VH: DVQLVESGGGLVQAGGSLRLSCVASGSTDSNYVMGWYRQTSGKQREWVASINSGGETRSADSEKGRFTISGDNAKNTVYLQMNSLKPEDTGVYYCFYERLAWDTSTYWGQGTQVTVS | 9.27

Let us examine a further case.
Prompt: # query: pKd of entry CoV2-YD-6 (antibody, V domains shown) VH: QVQLVESGGGSVQVGGSLRLSCAASGMTFSSATMAWYRQAPGKQREWVAGIGSGGRTSYASSMKGRFTISRDNAKNTVYLQMNSLKPEDTAVYYCYTALLSGGDYWGQGTQVTVS
Response: 8.54
